target: PADI4 (Homo sapiens); construct: His6; made in house; assay: Surface plasmon resonance (SPR), single cycle kinetics; assay type: binding
Sequence (Q9UM07 whole entry): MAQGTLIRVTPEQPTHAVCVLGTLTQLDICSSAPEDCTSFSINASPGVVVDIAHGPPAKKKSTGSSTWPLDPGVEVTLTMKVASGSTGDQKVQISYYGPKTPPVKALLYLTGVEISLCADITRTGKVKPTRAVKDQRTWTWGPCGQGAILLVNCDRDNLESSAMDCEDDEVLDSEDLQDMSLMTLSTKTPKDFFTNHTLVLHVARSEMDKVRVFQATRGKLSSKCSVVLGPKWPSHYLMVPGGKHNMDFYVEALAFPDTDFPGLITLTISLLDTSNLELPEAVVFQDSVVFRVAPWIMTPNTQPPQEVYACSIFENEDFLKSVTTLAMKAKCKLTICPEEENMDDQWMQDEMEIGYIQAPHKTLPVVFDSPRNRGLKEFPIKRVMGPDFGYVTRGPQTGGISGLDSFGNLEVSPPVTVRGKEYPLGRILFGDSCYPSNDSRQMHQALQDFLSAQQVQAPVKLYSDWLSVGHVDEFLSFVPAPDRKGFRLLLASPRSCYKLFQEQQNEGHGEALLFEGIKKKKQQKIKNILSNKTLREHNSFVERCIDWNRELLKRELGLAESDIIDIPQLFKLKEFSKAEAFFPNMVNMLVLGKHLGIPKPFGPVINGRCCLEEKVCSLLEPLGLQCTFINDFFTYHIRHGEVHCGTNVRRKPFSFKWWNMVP
Where a SMILES comes first, the peptide text is derived from it. Bridges are numbered along the chain shown (N, C = ends). [ ]: non-standard residue; d: D form. Orn(fluoroacetimidoyl) = N=C(CF)NCCC[C@H](N)C(=O)O

>  <COMPOUND>
CC[C@H](C)[C@@H]1NC(=O)[C@@H](Cc2ccc(O)cc2)NC(=O)CSC[C@@H](C(=O)NCC(N)=O)NC(=O)[C@H](CO)NC(=O)[C@H](CCCNC(=N)CF)NC(=O)[C@H](CC(=O)O)NC(=O)[C@H](CCCNC(=N)CF)NC(=O)[C@H](CC(C)C)NC(=O)CNC(=O)[C@H](Cc2c[nH]c3ccccc23)NC1=O [cP4_2, yIWGL(2)D(2)SCG] ({CH2CO}-[dY]IWGL[Orn(fluoroacetimidoyl)]D[Orn(fluoroacetimidoyl)]SCG-NH2; thioether N-10)

>  <kinact/KI>
1530 M⁻¹ s⁻¹

$$$$
